Hello, the source for this data is patent US8933195B2, in case you need it.

- Test system: human colon cancer HCT-116
- protocol text: Subcutaneously transplanted tumors in nude mice
- Type: in vivo, BALB/cA nude mice
- experimental parameters: Table 2.3; 20 mg/kg; d 17
readout kind: Weight (mean ± SD) d 17 (g)
Please state the figure in g; there is no need to write the unit.

Look up and report measured Weight (mean ± SD) d 17 (human colon cancer HCT-116) for the following molecule: C/C=C1\NC(=O)c2csc(n2)CNC(=O)C[C@@H](/C=C/CCSC(=O)CCCCCCC)OC(=O)[C@H](C)NC1=O [Compound 1-4]
13.3

Look up and report measured Weight (mean ± SD) d 17 (human colon cancer HCT-116) for the following molecule: C/C=C1\NC(=O)c2csc(n2)CNC(=O)C[C@@H](/C=C/CCSC(=O)CCCCCCC)OC(=O)[C@H](C(C)(C)C)NC1=O [Compound 1-6]
14.2

Look up and report measured Weight (mean ± SD) d 17 (human colon cancer HCT-116) for the following molecule: C/C=C1\NC(=O)c2csc(n2)CNC(=O)C[C@@H](/C=C/CCSC(=O)CCCCCCC)OC(=O)[C@H](Cc2ccc(O)cc2)NC1=O [Compound 1-8]
13.5

Look up and report measured Weight (mean ± SD) d 17 (human colon cancer HCT-116) for the following molecule: C/C=C1\NC(=O)c2csc(n2)CNC(=O)C[C@@H](/C=C/CCSC(=O)CCCCCCC)OC(=O)[C@H](Cc2ccccc2)NC1=O [Compound 1-7]
13.5
